- System: Saccharomyces cerevisiae
- test.method.notes: protein stability index of tFT-peptide fusion (C-terminal peptide) (PSI (0-1 scale)); higher = more stable (slower turnover);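 further: PSI is a weighted mean of sequencing reads over stability bins, variants kept only with over 10 reads, mCherry proximal and sfGFP distal, peptide attached via GGGS linker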
- condition.context: genetic background: wild type; temperature: 30 C
Listed here: items and their measured protein stability index.

{"polymer.sequence": "AGGTRRRTGRRR", "protein stability index": 0.702}
{"polymer.sequence": "PPPPPPSPHPPL", "protein stability index": 0.709}
{"polymer.sequence": "SLCTAGCKNELW", "protein stability index": 0.692}
{"polymer.sequence": "SSPSFPSPLPPY", "protein stability index": 0.701}
{"polymer.sequence": "NGLLRPALVPNY", "protein stability index": 0.693}
{"polymer.sequence": "TLSSPPPPPPPP", "protein stability index": 0.663}
{"polymer.sequence": "PPNPLHPPPSRP", "protein stability index": 0.653}
{"polymer.sequence": "AGGGLGGVGDVV", "protein stability index": 0.681}
{"polymer.sequence": "GRVAIFTLLWRI", "protein stability index": 0.314}
{"polymer.sequence": "FVRAVLRLSSVF", "protein stability index": 0.645}
{"polymer.sequence": "RLSDFFSPPLLP", "protein stability index": 0.717}
{"polymer.sequence": "SKEVVVEGKRQS", "protein stability index": 0.715}
{"polymer.sequence": "SCHPDPTRKSPN", "protein stability index": 0.716}
{"polymer.sequence": "GWNGAGSGCVRA", "protein stability index": 0.659}

###

- Test system: Saccharomyces cerevisiae
- test.method.notes: protein stability index of tFT-peptide fusion (C-terminal peptide) (PSI (0-1 scale)); higher = more stable (slower turnover)
- condition.context: genetic background: wild type; temperature: 30 C
quantity.measured: protein stability index

{"polymer.sequence": "RLRASFFFSPAL", "quantity.measured": "protein stability index", "numeric.result": 0.733}
{"polymer.sequence": "VNILFCLFFLLV", "quantity.measured": "protein stability index", "numeric.result": 0.412}
{"polymer.sequence": "CVGTLSPKTVRT", "quantity.measured": "protein stability index", "numeric.result": 0.697}

###

- Test system: Saccharomyces cerevisiae
- test.method.notes: protein stability index of tFT-peptide fusion (C-terminal peptide) (PSI (0-1 scale)); higher = more stable (slower turnover)
- condition.context: genetic background: wild type; temperature: 30 C
Hi, to clarify the labels: yes (1) covers protein stability index from 0.3 upward, no (0) covers anything below 0.3.

{"polymer.sequence": "VYRILFWFLCFG", "label.value": "yes (1)"}
{"polymer.sequence": "FSVTTLTILCLR", "label.value": "no (0)"}
{"polymer.sequence": "RNCSFRRIQLAM", "label.value": "no (0)"}
{"polymer.sequence": "GSLHWVMVFAVP", "label.value": "yes (1)"}
{"polymer.sequence": "LFVVHCFLSVSS", "label.value": "no (0)"}
{"polymer.sequence": "VGRVIVIVVAGV", "label.value": "no (0)"}
{"polymer.sequence": "RPPPAANFTRSS", "label.value": "yes (1)"}
{"polymer.sequence": "FQWILYIAKRVV", "label.value": "no (0)"}
{"polymer.sequence": "YIFLPIALVFFP", "label.value": "yes (1)"}
{"polymer.sequence": "SCLVLDYCFSLV", "label.value": "yes (1)"}
{"polymer.sequence": "PVGLMKRFRLFI", "label.value": "yes (1)"}
{"polymer.sequence": "WQSFRDKLIKGN", "label.value": "no (0)"}
{"polymer.sequence": "IRVLACFLFAVS", "label.value": "no (0)"}
